Procedure summary: DPPH free radical scavenging assay
Condition parameters: read-out: EC50 (DPPH radical scavenging); 517 nm
Please provide measured EC50 for the entries that follow.

Please give the documented EC50 of `Cc1ccc(C=NNC(=O)c2cccc(-n3ccc(=O)c(O)c3C)c2)cc1` 369 µM

Please give the documented EC50 of `Cc1c(O)c(=O)ccn1-c1cccc(C(=O)NN=Cc2ccc(C(C)C)cc2)c1` 14 µM

Please give the documented EC50 of `COc1cccc(C=NNC(=O)c2cccc(-n3ccc(=O)c(O)c3C)c2)c1[N+](=O)[O-]` 168 µM

Please give the documented EC50 of `Cc1c(O)c(=O)ccn1-c1cccc(C(=O)NN=Cc2ccc([N+](=O)[O-])s2)c1` 383 µM

Please give the documented EC50 of `Cc1c(O)c(=O)ccn1-c1cccc(C(=O)NN=Cc2ccc(C#N)cc2)c1` 216 µM

Please give the documented EC50 of O=c1c(O)c(-c2ccc(O)c(O)c2)oc2cc(O)cc(O)c12 [Quercetin, reference compound] 8.9 µM

Please give the documented EC50 of `Cc1c(O)c(=O)ccn1-c1cccc(C(=O)NN=Cc2cc([N+](=O)[O-])ccc2Cl)c1` > 400 µM

Please give the documented EC50 of `Cc1c(O)c(=O)ccn1-c1cccc(C(=O)NN=Cc2cc(Br)ccc2O)c1` 185 µM

Please give the documented EC50 of `Cc1c(O)c(=O)ccn1-c1cccc(C(=O)NN=Cc2ccc(F)cc2)c1` 12 µM

Please give the documented EC50 of `Cc1c(O)c(=O)ccn1-c1cccc(C(=O)NN=Cc2ccc(Cl)cc2Cl)c1` 191 µM

Please give the documented EC50 of `Cc1c(O)c(=O)ccn1-c1cccc(C(=O)NN=Cc2ccccc2[N+](=O)[O-])c1` 32 µM
